- assayExplanation: fluconazole-resistant Candida isolate growth inhibitors – retest at dose, dry powder, set 2, confirmation (AID 623897)
- studyConditions: C. albicans CaCi-17 growth, Alamar Blue fluorescence, 48 h; at 26 µM (top of the series)
endpointLabel: activity change, negative = inhibition (%)
Give the quantity in %, number only.

The examples below pair each entry with its known result.
>  <compoundStructure>
Cc1ccc(N2C(=O)NC(=O)C23CCCCC3)cc1

>  <activity change, negative = inhibition, %>
5.65

$$$$
>  <compoundStructure>
CCOC(=O)N1C(=O)C2(CCCCC2)N(C(C)C)C1=S

>  <activity change, negative = inhibition, %>
-6.94

$$$$
>  <compoundStructure>
CCCCN1C(=O)C2(CCCCC2)N(c2ccc(C)cc2)C1=S

>  <activity change, negative = inhibition, %>
-7.78

$$$$
>  <compoundStructure>
CCOC(=O)N1C(=O)C2(CCC2)N(c2ccc(C)cc2)C1=S

>  <activity change, negative = inhibition, %>
13.1

$$$$
>  <compoundStructure>
Cc1ccc(N2C(=S)N(C(=O)OC(C)C)C(=O)C23CCCCC3)cc1

>  <activity change, negative = inhibition, %>
7.31

$$$$

Below: the item to evaluate.
The reported activity change, negative = inhibition of the compound CCCC(=O)N1C(=O)C2(CCCCC2)N(c2ccc(C)cc2)C1=S was 8.69

###

- assayExplanation: fluconazole-resistant Candida isolate growth inhibitors – retest at dose, dry powder, set 2, confirmation (AID 623897)
- studyConditions: C. albicans CaCi-17 growth, Alamar Blue fluorescence, 48 h; at 26 µM (top of the series)
The following molecules are listed with their measured activity change, negative = inhibition values.
Give the quantity in %, number only.

>  <compoundStructure>
CCOC(=O)N1C(=O)C2(CCCCC2)NC1=S

>  <reportedResult>
-0.208

$$$$
>  <compoundStructure>
CCOC(=O)N1C(=S)N(c2ccc(C)cc2)C2(CCCCC2)C1=NCc1ccccc1

>  <reportedResult>
5.9

$$$$
>  <compoundStructure>
Cc1ccc(N2C(=S)NC(=O)C23CCCCC3)cc1

>  <reportedResult>
-4.65

$$$$
>  <compoundStructure>
O=C1NC(=S)N(c2ccc(F)cc2)C12CCCCC2

>  <reportedResult>
-18.2

$$$$
>  <compoundStructure>
CCOC(=O)N1C(=O)C(C)(C)N(c2ccc(C)cc2)C1=S

>  <reportedResult>
11.1

$$$$

The reported activity change, negative = inhibition of the molecule CCOC(=O)N1C(=S)NC(=O)C12CCCCC2 was 8.62

The reported activity change, negative = inhibition of the molecule CCOC(=O)N1C(=S)N(c2ccc(C)cc2)C(=O)C12CCCCC2 was 3.4

The reported activity change, negative = inhibition of the molecule Cc1ccc(N2C(=S)N(C(=O)Oc3ccccc3)C(=O)C23CCCCC3)cc1 was 1.41

The reported activity change, negative = inhibition of the molecule CCOC(=O)N1C(=O)C2(CCOCC2)N(c2ccc(C)cc2)C1=S was 0.474

The reported activity change, negative = inhibition of the molecule Cc1ccc(N2C(=O)N(C)C(=O)C23CCCCC3)cc1 was 0.531

The reported activity change, negative = inhibition of the molecule CC(C)N1C(=S)NC(=O)C12CCCCC2 was -18.9

The reported activity change, negative = inhibition of the molecule CCOC(=O)N1C(=O)C2(CCCC2)N(c2ccc(C)cc2)C1=S was 1.68

###

- Test system: C. albicans CaCi-17 growth, Alamar Blue fluorescence, 48 h
- assayExplanation: fluconazole-resistant Candida isolate growth inhibitors – retest at dose, dry powder, set 2, confirmation (AID 623897)
The source made the active and inactive calls.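 How the source made its calls: active means fitted AC50 at or below twice the top valid tested dose for that sample, with falling signal; inconclusive means flat curve with 30 to 70% inhibition, or poor fit; inactive means the rest.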
The following compounds are listed with their measured AC50 values.

>  <compound>
O=C1NC(=S)N(c2ccccc2)C12CCCCC2

>  <AC50>
> 52 µM (inactive)

$$$$

The reported AC50 of the compound CCOC(=O)N1C(=O)C2(CCCCC2)N(c2cccc(C)c2)C1=S was 8.16 µM

The reported AC50 of the compound Cc1ccc(N2CC(=O)NC2=S)cc1 was > 52 µM (inactive)

###

- System: C. albicans CaCi-17 growth, Alamar Blue fluorescence, 48 h
- assayExplanation: fluconazole-resistant Candida isolate growth inhibitors – retest at dose, dry powder, set 2, confirmation (AID 623897)
Activity calls are given as the source filed them.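 How the source made its calls: active means fitted AC50 at or below twice the top valid tested dose for that sample, with falling signal; inconclusive means flat curve with 30 to 70% inhibition, or poor fit; inactive means the rest.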
# output must be one of y = active, n = inactive

Use the examples below as a reference point.
>  <compoundStructure>
CCOC(=O)N1C(=O)C2(CCCCC2)N(c2ccc(Cl)cc2)C1=S

>  <class>
y

$$$$
>  <compoundStructure>
CCOC(=O)N1C(=O)C2(CCCCC2)N(Cc2ccccc2)C1=S

>  <class>
y

$$$$
>  <compoundStructure>
CCOC(=O)N1C(=O)C2(CCCCC2)N(c2ccc(C(F)(F)F)cc2)C1=S

>  <class>
y

$$$$

Hello, I am checking results. What call was entered for CCOC(=O)N1C(=O)C2(CCCCC2)N(c2ccccc2C)C1=S ? y

Hello, I am checking results. What call was entered for CCOC(=O)N1C(=O)C2(CCCCC2)N(c2ccc(C#N)cc2)C1=S ? y

Hello, I am checking results. What call was entered for CCOC(=O)N1C(=O)C2(CCCCC2)N(c2ccc(C(C)(C)C)cc2)C1=S ? n

###

- assayExplanation: fluconazole-resistant Candida isolate growth inhibitors – retest at dose, dry powder, set 2, confirmation (AID 623897)
- studyConditions: C. albicans CaCi-17 growth, Alamar Blue fluorescence, 48 h; at 26 µM (top of the series)
The following compounds are listed with their measured activity change, negative = inhibition values.
Give the quantity in %, number only.

The reported activity change, negative = inhibition of the compound Cc1ccc(N2C(=O)C3(CCCCC3)NC2=S)cc1 was 5.29

The reported activity change, negative = inhibition of the compound Cc1ccc(N2C(=S)N(C)C(=O)C23CCCCC3)cc1 was -21

The reported activity change, negative = inhibition of the compound Cc1ccc(N2C(=O)C(=O)NC2=S)cc1 was 5.65

The reported activity change, negative = inhibition of the compound O=C1NC(=S)NC12CCCCC2 was 2.58

The reported activity change, negative = inhibition of the compound Cc1ccc(N2C(=S)NC(=O)C23CCCC3)cc1 was 4.84

The reported activity change, negative = inhibition of the compound CCCOC(=O)N1C(=O)C2(CCCCC2)N(c2ccc(C)cc2)C1=S was 17.3

###

- assayExplanation: fluconazole-resistant Candida isolate growth inhibitors – retest at dose, dry powder, set 2, confirmation (AID 623897)
- studyConditions: C. albicans CaCi-17 growth, Alamar Blue fluorescence, 48 h; at 26 µM (top of the series)
The source made the active and inactive calls.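 How the source made its calls: active means fitted AC50 at or below twice the top valid tested dose for that sample, with falling signal; inconclusive means flat curve with 30 to 70% inhibition, or poor fit; inactive means the rest.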
endpointLabel: activity change, negative = inhibition

The examples below pair each entry with its known result.
>  <compoundStructure>
CCOC(=O)N1C(=O)C2(CCCCC2)N(c2ccc(C(C)C)cc2)C1=S

>  <activity change, negative = inhibition>
8.52% (inactive)

$$$$
>  <compoundStructure>
Cc1ccc(N2C(=S)NC(=O)C2(C)C)cc1

>  <activity change, negative = inhibition>
2.64% (inactive)

$$$$
>  <compoundStructure>
Cc1ccc(N2C(=S)N(C(=O)OCc3ccccc3)C(=O)C23CCCCC3)cc1

>  <activity change, negative = inhibition>
5.07% (inactive)

$$$$
>  <compoundStructure>
CCCCN1C(=O)N(c2ccc(C)cc2)C2(CCCCC2)C1=O

>  <activity change, negative = inhibition>
9.41% (inactive)

$$$$
>  <compoundStructure>
Cc1ccc(N2CC(=O)NC2=O)cc1

>  <activity change, negative = inhibition>
-8.61% (inactive)

$$$$
>  <compoundStructure>
CCCc1ccc(N2C(=S)N(C(=O)OCC)C(=O)C23CCCCC3)cc1

>  <activity change, negative = inhibition>
-11.5% (inactive)

$$$$
>  <compoundStructure>
Cc1ccc(N2C(=S)N(S(C)(=O)=O)C(=O)C23CCCCC3)cc1

>  <activity change, negative = inhibition>
3.7% (inactive)

$$$$
>  <compoundStructure>
O=C1NC(=S)N(Cc2ccccc2)C12CCCCC2

>  <activity change, negative = inhibition>
0.955% (inactive)

$$$$

Below: the item to evaluate.
The reported activity change, negative = inhibition of the compound CCOC(=O)N1C(=O)C2(CCCCC2)N(c2ccc(CC)cc2)C1=S was -31.8% (inactive)

###

- Test system: C. albicans CaCi-17 growth, Alamar Blue fluorescence, 48 h
- assayExplanation: fluconazole-resistant Candida isolate growth inhibitors – retest at dose, dry powder, set 2, confirmation (AID 623897)
The source made the active and inactive calls.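 How the source made its calls: active means fitted AC50 at or below twice the top valid tested dose for that sample, with falling signal; inconclusive means flat curve with 30 to 70% inhibition, or poor fit; inactive means the rest.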
# output must be one of 1 = active, 0 = inactive

Use the examples below as a reference point.
>  <compound>
Cc1ccc(N2C(=S)NC(=O)C23CCC3)cc1

>  <assaySystem>
C. albicans CaCi-17 growth, Alamar Blue fluorescence, 48 h

>  <class>
0

$$$$
>  <compound>
CC1/C=C/C=C\C=C\C=C\C=C\C=C\C=C\C(O[C@H]2OC(C)C(O)C(N)C2O)CC2OC(O)(CC(O)CC(O)C(O)CCC(O)CC(O)CC(=O)OC(C)C(C)C1O)CC(O)C2C(=O)O (some centres undefined)

>  <assaySystem>
C. albicans CaCi-17 growth, Alamar Blue fluorescence, 48 h

>  <class>
1

$$$$

Hello, I am checking results. What call was entered for Cc1ccc(N2C(=S)NC(=O)C23CCOCC3)cc1 ? 0

Hello, I am checking results. What call was entered for CCOC(=O)N1C(=O)N(c2ccc(C)cc2)C2(CCCCC2)C1=O ? 0

Hello, I am checking results. What call was entered for CCOC(=O)N1C(=O)C2(CCCCC2)N(c2ccc(-c3ccccc3)cc2)C1=S ? 0

Hello, I am checking results. What call was entered for COC(=O)N1C(=O)C2(CCCCC2)N(c2ccc(C)cc2)C1=S ? 1
